Field: IC50. Provide a value for each of the compounds that follow.
- Test system: phosphate uptake by rabbit intestinal Brush Border Membrane Vesicles (BBMV)
- Test description: 33PO4 uptake in rabbit intestinal BBMV (HTS), phosphate transporter inhibition in vitro
- Type: biochemical
- Assay conditions: Table 13, phosphate uptake, read-out: IC50

Inquiry: // lookup IC50 | system=phosphate uptake by rabbit intestinal Brush Border Membrane Vesicles (BBMV) | key= O=S(=O)(O)c1cc(NS(=O)(=O)c2cccc3cccnc23)ccc1/C=C/c1ccc(NS(=O)(=O)c2cccc3cccnc23)cc1S(=O)(=O)O
Reply text: > 1500 µM

Inquiry: // repeat for O=S(=O)(O)c1cc(NS(=O)(=O)c2ccc(-c3ccccc3)cc2)ccc1/C=C/c1ccc(NS(=O)(=O)c2ccc(-c3ccccc3)cc2)cc1S(=O)(=O)O [Compound 298] and report
Reply text: 501 to 1000 µM

Inquiry: // repeat for Oc1ccc(/C=C/c2ccc(O)cc2)cc1 and report
Reply text: > 1500 µM

Inquiry: // repeat for Cc1ccc(S(=O)(=O)Nc2ccc(/C=C/c3ccc(NS(=O)(=O)c4ccc(C)c([N+](=O)[O-])c4)cc3S(=O)(=O)O)c(S(=O)(=O)O)c2)cc1[N+](=O)[O-] and report
Reply text: > 1500 µM

Inquiry: // repeat for O=[N+]([O-])c1ccc(S(=O)(=O)Nc2ccc(/C=C/c3ccc(NS(=O)(=O)c4ccc([N+](=O)[O-])cc4)cc3S(=O)(=O)O)c(S(=O)(=O)O)c2)cc1 [Compound 303] and report
Reply text: 501 to 1000 µM

Inquiry: // repeat for O=[N+]([O-])c1ccc(/C=C/c2ccc([N+](=O)[O-])cc2S(=O)(=O)O)c(S(=O)(=O)O)c1 and report
Reply text: 1000 to 1500 µM
